Data origin: the supplement of paper PMC6757056

B1: library; a variant is named by its letters at N, in order (parent)
chain: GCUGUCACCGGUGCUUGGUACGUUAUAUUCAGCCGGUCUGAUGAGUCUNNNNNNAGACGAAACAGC

- Variants of: B1
- Assay protocol: normalized RNA/DNA level with ligand (relative to sTRSVctl = 100) (log10 (% of sTRSVctl)); HEK293T overexpressing SLC46A1; ligand concentration (+) RNA-Seq: 6 mM; higher = less ribozyme self-cleavage, higher mRNA level
- Details: with (6R,S)-folinic acid; ligand present: yes
Property measured: normalized RNA/DNA level with ligand (log10)

>  <Macromolecule sequence>
GCUGUCACCGGUGCUUGGUACGUUAUAUUCAGCCGGUCUGAUGAGUCUGCGCCUAGACGAAACAGC [GCGCCU]

>  <Reported result>
2.09

$$$$
>  <Macromolecule sequence>
GCUGUCACCGGUGCUUGGUACGUUAUAUUCAGCCGGUCUGAUGAGUCUAUAAUUAGACGAAACAGC [AUAAUU]

>  <Reported result>
2.03

$$$$
>  <Macromolecule sequence>
GCUGUCACCGGUGCUUGGUACGUUAUAUUCAGCCGGUCUGAUGAGUCUAUUUGUAGACGAAACAGC [AUUUGU]

>  <Reported result>
2.02

$$$$
>  <Macromolecule sequence>
GCUGUCACCGGUGCUUGGUACGUUAUAUUCAGCCGGUCUGAUGAGUCUCCACUUAGACGAAACAGC [CCACUU]

>  <Reported result>
1.97

$$$$
>  <Macromolecule sequence>
GCUGUCACCGGUGCUUGGUACGUUAUAUUCAGCCGGUCUGAUGAGUCUGUACGGAGACGAAACAGC [GUACGG]

>  <Reported result>
2.03

$$$$
>  <Macromolecule sequence>
GCUGUCACCGGUGCUUGGUACGUUAUAUUCAGCCGGUCUGAUGAGUCUUCCACGAGACGAAACAGC [UCCACG]

>  <Reported result>
2.01

$$$$
>  <Macromolecule sequence>
GCUGUCACCGGUGCUUGGUACGUUAUAUUCAGCCGGUCUGAUGAGUCUGAGCAUAGACGAAACAGC [GAGCAU]

>  <Reported result>
2.02

$$$$
>  <Macromolecule sequence>
GCUGUCACCGGUGCUUGGUACGUUAUAUUCAGCCGGUCUGAUGAGUCUCGCCCAAGACGAAACAGC [CGCCCA]

>  <Reported result>
2.06

$$$$
>  <Macromolecule sequence>
GCUGUCACCGGUGCUUGGUACGUUAUAUUCAGCCGGUCUGAUGAGUCUGUGGCAAGACGAAACAGC [GUGGCA]

>  <Reported result>
2.02

$$$$
>  <Macromolecule sequence>
GCUGUCACCGGUGCUUGGUACGUUAUAUUCAGCCGGUCUGAUGAGUCUCCAGGAAGACGAAACAGC [CCAGGA]

>  <Reported result>
1.98

$$$$
>  <Macromolecule sequence>
GCUGUCACCGGUGCUUGGUACGUUAUAUUCAGCCGGUCUGAUGAGUCUGUAUAGAGACGAAACAGC [GUAUAG]

>  <Reported result>
2.01

$$$$
>  <Macromolecule sequence>
GCUGUCACCGGUGCUUGGUACGUUAUAUUCAGCCGGUCUGAUGAGUCUACUGUCAGACGAAACAGC [ACUGUC]

>  <Reported result>
2.04

$$$$
>  <Macromolecule sequence>
GCUGUCACCGGUGCUUGGUACGUUAUAUUCAGCCGGUCUGAUGAGUCUGUCAGCAGACGAAACAGC [GUCAGC]

>  <Reported result>
2.02

$$$$
>  <Macromolecule sequence>
GCUGUCACCGGUGCUUGGUACGUUAUAUUCAGCCGGUCUGAUGAGUCUGGACAUAGACGAAACAGC [GGACAU]

>  <Reported result>
2.01

$$$$
>  <Macromolecule sequence>
GCUGUCACCGGUGCUUGGUACGUUAUAUUCAGCCGGUCUGAUGAGUCUUUUGAUAGACGAAACAGC [UUUGAU]

>  <Reported result>
1.99

$$$$
>  <Macromolecule sequence>
GCUGUCACCGGUGCUUGGUACGUUAUAUUCAGCCGGUCUGAUGAGUCUUAGGCAAGACGAAACAGC [UAGGCA]

>  <Reported result>
2.03

$$$$
>  <Macromolecule sequence>
GCUGUCACCGGUGCUUGGUACGUUAUAUUCAGCCGGUCUGAUGAGUCUUUCGAAAGACGAAACAGC [UUCGAA]

>  <Reported result>
2

$$$$
>  <Macromolecule sequence>
GCUGUCACCGGUGCUUGGUACGUUAUAUUCAGCCGGUCUGAUGAGUCUCUCUGGAGACGAAACAGC [CUCUGG]

>  <Reported result>
2.04

$$$$
>  <Macromolecule sequence>
GCUGUCACCGGUGCUUGGUACGUUAUAUUCAGCCGGUCUGAUGAGUCUGUAUCGAGACGAAACAGC [GUAUCG]

>  <Reported result>
2.05

$$$$
>  <Macromolecule sequence>
GCUGUCACCGGUGCUUGGUACGUUAUAUUCAGCCGGUCUGAUGAGUCUGGUAGCAGACGAAACAGC [GGUAGC]

>  <Reported result>
2.02

$$$$
>  <Macromolecule sequence>
GCUGUCACCGGUGCUUGGUACGUUAUAUUCAGCCGGUCUGAUGAGUCUCCCCGCAGACGAAACAGC [CCCCGC]

>  <Reported result>
2.05

$$$$
>  <Macromolecule sequence>
GCUGUCACCGGUGCUUGGUACGUUAUAUUCAGCCGGUCUGAUGAGUCUAGCGGGAGACGAAACAGC [AGCGGG]

>  <Reported result>
2.06

$$$$
>  <Macromolecule sequence>
GCUGUCACCGGUGCUUGGUACGUUAUAUUCAGCCGGUCUGAUGAGUCUAUCACUAGACGAAACAGC [AUCACU]

>  <Reported result>
2.01

$$$$
>  <Macromolecule sequence>
GCUGUCACCGGUGCUUGGUACGUUAUAUUCAGCCGGUCUGAUGAGUCUGUGGAGAGACGAAACAGC [GUGGAG]

>  <Reported result>
2

$$$$
>  <Macromolecule sequence>
GCUGUCACCGGUGCUUGGUACGUUAUAUUCAGCCGGUCUGAUGAGUCUAUCGGAAGACGAAACAGC [AUCGGA]

>  <Reported result>
2

$$$$
>  <Macromolecule sequence>
GCUGUCACCGGUGCUUGGUACGUUAUAUUCAGCCGGUCUGAUGAGUCUAAGUUUAGACGAAACAGC [AAGUUU]

>  <Reported result>
2.01

$$$$
>  <Macromolecule sequence>
GCUGUCACCGGUGCUUGGUACGUUAUAUUCAGCCGGUCUGAUGAGUCUUGGAAUAGACGAAACAGC [UGGAAU]

>  <Reported result>
2

$$$$
>  <Macromolecule sequence>
GCUGUCACCGGUGCUUGGUACGUUAUAUUCAGCCGGUCUGAUGAGUCUCUCCGGAGACGAAACAGC [CUCCGG]

>  <Reported result>
2.05

$$$$
>  <Macromolecule sequence>
GCUGUCACCGGUGCUUGGUACGUUAUAUUCAGCCGGUCUGAUGAGUCUCUUUCAAGACGAAACAGC [CUUUCA]

>  <Reported result>
2.01

$$$$
>  <Macromolecule sequence>
GCUGUCACCGGUGCUUGGUACGUUAUAUUCAGCCGGUCUGAUGAGUCUUGCCUUAGACGAAACAGC [UGCCUU]

>  <Reported result>
2.01

$$$$
>  <Macromolecule sequence>
GCUGUCACCGGUGCUUGGUACGUUAUAUUCAGCCGGUCUGAUGAGUCUCAUUGUAGACGAAACAGC [CAUUGU]

>  <Reported result>
2.02

$$$$
>  <Macromolecule sequence>
GCUGUCACCGGUGCUUGGUACGUUAUAUUCAGCCGGUCUGAUGAGUCUCACUUUAGACGAAACAGC [CACUUU]

>  <Reported result>
1.98

$$$$
>  <Macromolecule sequence>
GCUGUCACCGGUGCUUGGUACGUUAUAUUCAGCCGGUCUGAUGAGUCUAUGUGCAGACGAAACAGC [AUGUGC]

>  <Reported result>
1.98

$$$$
>  <Macromolecule sequence>
GCUGUCACCGGUGCUUGGUACGUUAUAUUCAGCCGGUCUGAUGAGUCUAACACAAGACGAAACAGC [AACACA]

>  <Reported result>
2.01

$$$$
>  <Macromolecule sequence>
GCUGUCACCGGUGCUUGGUACGUUAUAUUCAGCCGGUCUGAUGAGUCUGCAUUCAGACGAAACAGC [GCAUUC]

>  <Reported result>
2.02

$$$$
>  <Macromolecule sequence>
GCUGUCACCGGUGCUUGGUACGUUAUAUUCAGCCGGUCUGAUGAGUCUCAAAUGAGACGAAACAGC [CAAAUG]

>  <Reported result>
2.01

$$$$
>  <Macromolecule sequence>
GCUGUCACCGGUGCUUGGUACGUUAUAUUCAGCCGGUCUGAUGAGUCUCAGUCAAGACGAAACAGC [CAGUCA]

>  <Reported result>
1.96

$$$$
>  <Macromolecule sequence>
GCUGUCACCGGUGCUUGGUACGUUAUAUUCAGCCGGUCUGAUGAGUCUGAAUGAAGACGAAACAGC [GAAUGA]

>  <Reported result>
2.02

$$$$
>  <Macromolecule sequence>
GCUGUCACCGGUGCUUGGUACGUUAUAUUCAGCCGGUCUGAUGAGUCUACGUAUAGACGAAACAGC [ACGUAU]

>  <Reported result>
2.02

$$$$
>  <Macromolecule sequence>
GCUGUCACCGGUGCUUGGUACGUUAUAUUCAGCCGGUCUGAUGAGUCUAUUAAUAGACGAAACAGC [AUUAAU]

>  <Reported result>
1.98

$$$$
>  <Macromolecule sequence>
GCUGUCACCGGUGCUUGGUACGUUAUAUUCAGCCGGUCUGAUGAGUCUGUAAGGAGACGAAACAGC [GUAAGG]

>  <Reported result>
2.02

$$$$
>  <Macromolecule sequence>
GCUGUCACCGGUGCUUGGUACGUUAUAUUCAGCCGGUCUGAUGAGUCUCUCGGCAGACGAAACAGC [CUCGGC]

>  <Reported result>
2.04

$$$$
>  <Macromolecule sequence>
GCUGUCACCGGUGCUUGGUACGUUAUAUUCAGCCGGUCUGAUGAGUCUAAUCAAAGACGAAACAGC [AAUCAA]

>  <Reported result>
1.99

$$$$
>  <Macromolecule sequence>
GCUGUCACCGGUGCUUGGUACGUUAUAUUCAGCCGGUCUGAUGAGUCUCCAUGGAGACGAAACAGC [CCAUGG]

>  <Reported result>
2.02

$$$$
>  <Macromolecule sequence>
GCUGUCACCGGUGCUUGGUACGUUAUAUUCAGCCGGUCUGAUGAGUCUUAUCUAAGACGAAACAGC [UAUCUA]

>  <Reported result>
2.03

$$$$
>  <Macromolecule sequence>
GCUGUCACCGGUGCUUGGUACGUUAUAUUCAGCCGGUCUGAUGAGUCUAAAAGAAGACGAAACAGC [AAAAGA]

>  <Reported result>
2.02

$$$$
